From: paper PMC5540273

- Tested on: PCTK3
- Construct: gene CDK18
- test-context: concentration: 1 μM, replicates: in singlicate; n = 1;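 note: KINOMEscan kinase panel screen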
Each item that follows carries a reported %Inh.
Respond with the bare value in %.

Below, each entry is followed by its recorded %Inh result.
COc1cc(Nc2nccc(N3CCC(NC(=O)Nc4ccc5c(c4)OCO5)C3)n2)cc(OC)c1OC (centres unmarked); 31
Cc1cc(-c2ccnc(Nc3cccc(C#N)c3)n2)cc(C)c1O; 43

Sample `COc1cc(Nc2nccc(N3CCC(NS(=O)(=O)c4ccc(NC(C)=O)cc4)CC3)n2)cc(OC)c1OC` ; %Inh observed: 25

So, `Nc1ncc(-c2ccc3nccc(-c4ccncc4)c3c2)cc1S(=O)(=O)N1CCCCC1` ? Its %Inh was 0

In plain terms, `Cl.N#CCc1ccc(Nc2nccc(Nc3ccc(Oc4ccccc4)cc3)n2)cc1` has a documented %Inh of 8

---

- Tested on: ZAP70
- test-context: concentration: 1 μM, replicates: in singlicate; n = 1
assay-readout: %Inh (%)
Output spec: scalar in %, unitless text.

// known answers, use as guide
Cc1cccc(Nc2nc(N[C@H]3CCCC[C@H]3N)ncc2C(N)=O)c1.Cl; 92.9
CN(C)CCOc1ccc(-c2cc(-c3ccc(Cl)c(O)c3)c(-c3ccncc3)[nH]2)cc1.Cl.Cl; 20
COc1cccc(CC(=O)N2CCc3cc(-c4cn(C)c5ncnc(N)c45)ccc32)c1; 0

// field: %Inh; key: `CC(C)c1nc(-c2cccc(NS(=O)(=O)c3c(F)cccc3F)c2)c(-c2ccnc(Nc3ccc(N4CCOCC4)nc3)n2)s1.Cl` ; value = 0

---

- Tested on: AKT1
- test-context: concentration: 1 μM, replicates: in singlicate; n = 1
assay-readout: %Inh (%)
API: value field is a number in %; no unit string.

Please review the following examples before continuing.
CCOc1nccc(-c2c(-c3ccc(F)cc3)ncn2C2CCNCC2)n1 [SB-249175]; 0
Nc1ncc(-c2ccc3nccc(-c4ccncc4)c3c2)cc1S(=O)(=O)N1CCCCC1 [GSK1693850]; 0
O=C(Nc1n[nH]c2nc(-c3ccccc3)ccc12)C1CC1 [SB-708999]; 14
Fc1cc(Cl)ccc1Nc1ccnc2cc(-c3ccc(CN4CCSCC4)o3)ccc12 [GW560106]; 0
COc1cccc(C2=C(Nc3cccc(O)c3)C(=O)NC2=O)c1 [SB-390771]; 0
Nc1ncc(-c2cn[nH]c2)c2scc(-c3ccc4c(c3)CCN4C(=O)Cc3ccccc3)c12 [GSK2593067]; 0
CCNC(=O)/C=C/c1n[nH]c2cc(Sc3ccccc3C(=O)NC)ccc12; 6

Moving on to another molecule below.
Log: AKT1, molecule CC(C)c1nc(-c2cccc(NS(=O)(=O)c3c(F)cccc3F)c2)c(-c2ccnc(Nc3ccc(N4CCOCC4)nc3)n2)s1.Cl [GSK1723980] , %Inh = 0

---

- System: IRAK4
- test-context: concentration: 1 μM, replicates: in singlicate; n = 1
assay-readout: %Inh (%)
Quick note: give the figure in %, leave out the unit.

For orientation, consider the following solved cases.
O=C(O)C(F)(F)F.O=c1[nH]ccc2nc(N[C@@H]3CCNC3)nc(Nc3ccc4c(c3)S(=O)(=O)CC4)c12; 15
Nc1ncc(-c2ccc3nccc(-c4ccncc4)c3c2)cc1S(=O)(=O)N1CCCCC1; 10
Cl.N#CCc1ccc(Nc2nccc(Nc3ccc(Oc4ccccc4)cc3)n2)cc1; 32

Form: compound = `Nc1ncc(-c2cn[nH]c2)c2scc(-c3ccc4c(c3)CCN4C(=O)Cc3ccccc3)c12` ; %Inh = 0

---

- Tested on: JAK2(JH1domain-catalytic)
- test-context: concentration: 1 μM, replicates: in singlicate; n = 1
Let's look at some compounds and their measured %Inh.
Give just the number in %; leave the unit off.

Previously resolved entries follow.
COc1cccc(CC(=O)N2CCc3cc(-c4cn(C)c5ncnc(N)c45)ccc32)c1; 0
Cc1ccc(O)cc1Nc1ccnc2cc(-c3ccc(CN4CCCCC4)o3)ccc12; 0
COC(=O)Nc1nc2ccc(Oc3ccc(CC(=O)Nc4cc(C(F)(F)F)ccc4F)cc3)cc2[nH]1; 7
Fc1cc(Cl)ccc1Nc1ccnc2cc(-c3ccc(CN4CCOCC4)o3)ccc12; 35
O=C(Nc1n[nH]c2nc(-c3ccccc3)ccc12)C1CC1; 17
Cc1ccc(NC(=O)c2ccc(Cl)c(Cl)c2)cc1-c1ccc(C(=O)Nc2ccncc2)cc1; 0

Proceeding to the next compound to report its %Inh.
The observed %Inh for `CCNC(=O)/C=C/c1n[nH]c2cc(Sc3ccccc3C(=O)NC)ccc12` when tested with JAK2(JH1domain-catalytic) stands at 0

---

- System: PDPK1
- test-context: concentration: 1 μM, replicates: in singlicate; n = 1
assay-readout: %Inh (%)
Hi! Could you send only the number? It should be in %, unit omitted.

Lookup result for `COC(=O)Nc1nc2ccc(Oc3ccc(CC(=O)Nc4cc(C(F)(F)F)ccc4F)cc3)cc2[nH]1` ; measured %Inh: 0

Reported %Inh of `O=C(Nc1n[nH]c2nc(-c3ccccc3)ccc12)C1CC1` : 34

The compound listed as `N#Cc1cnc2cc(-c3cnc(CNCCN4CCOCC4)s3)ccc2c1Nc1ccc(Oc2ccccc2)cc1` shows %Inh equal to 0

GET /value?item= `Cc1cc(-c2ccnc(Nc3cccc(C#N)c3)n2)cc(C)c1O` &field=%Inh returns 0

The value of %Inh measured for the compound `CN(C)CCNS(=O)(=O)c1ccc(-c2ccnc3[nH]ccc23)cc1` turned out to be 0

---

Measured %Inh, listed per entry for reference.
- Tested on: CAMKK2
- test-context: concentration: 1 μM, replicates: in singlicate; n = 1
Quick reminder: number only, in %, skip the unit.

Reported %Inh for `CC(C)c1nc(-c2cccc(NS(=O)(=O)c3c(F)cccc3F)c2)c(-c2ccnc(Nc3ccc(N4CCOCC4)nc3)n2)s1.Cl` was 6

compound `CN(c1ccc(NC(=O)Nc2cccc(Cl)c2)cc1)c1ccnc(N)n1.Cl` , %Inh observed: 14

# compound `Cc1ccccc1CC(=O)N1CCc2cc(-c3cn(C)c4ncnc(N)c34)ccc21` ; its %Inh = 0

Consider `COC(=O)Nc1nc2cc(Oc3ccc(NC(=O)Nc4cccc(SC)c4)cc3)ccc2[nH]1.Cl` . Its measured %Inh is 0

So for `COc1ccc(C)c(Nc2ccnc(Nc3ccc(-c4cnc[nH]4)cc3)n2)c1.Cl` , the logged %Inh turned out to be 0

For `Cc1ccc(O)cc1Nc1ccnc2ccc(C(C)(C)C)cc12` the compound record lists %Inh as 26

In plain terms, `Fc1cc(Cl)ccc1Nc1ccnc2cc(-c3ccc(CN4CCSCC4)o3)ccc12` has a documented %Inh of 21

compound `Nc1cccc(-c2ccc3c(N)n[nH]c3c2)c1` , %Inh observed: 13

---

- Tested on: FER
- test-context: concentration: 1 μM, replicates: in singlicate; n = 1
assay-readout: %Inh
# output: number + unit

CN1CCN(Cc2ccc(NC(=O)Nc3ccc(N(C)c4ccnc(Nc5ccc(CS(C)(=O)=O)cc5)n4)cc3)cc2)CC1.Cl; 45%
Cc1ccccc1CC(=O)N1CCc2cc(-c3cn(C)c4ncnc(N)c34)ccc21; 17%

For `Nc1ncc(-c2cn[nH]c2)c2scc(-c3ccc4c(c3)CCN4C(=O)Cc3ccccc3)c12` the compound record lists %Inh as 29%

// %Inh value for `Cc1nn2c(=O)cc(N3CCO[C@H](C)C3)nc2n1Cc1cccc(Cl)c1Cl` : 8%

Documented %Inh of `CN(c1ccc(NC(=O)Nc2cccc(Cl)c2)cc1)c1ccnc(N)n1.Cl` : 9%

%Inh recorded for this compound, `COc1ccc(C2=C(Nc3cccc(O)c3)C(=O)NC2=O)cc1` , is 0%

# compound `COc1cccc(NC(=O)NCCNc2ccnc(Nc3ccc(F)cc3)n2)c1` ; its %Inh = 8%

# compound `Nc1cccc(-c2ccc3c(N)n[nH]c3c2)c1` ; its %Inh = 11%

---

Below is a list of entries, each paired with its recorded %Inh value.
- System: CLK3
- test-context: concentration: 1 μM, replicates: in singlicate; n = 1
The response must be a number in % with no trailing unit.

Reference set, count: 6
Cl.Cl.NCC(NC(=O)c1cc(-c2cccnc2)c(-c2ccnc3[nH]ccc23)s1)c1ccccc1 (stereo not shown) [GSK1323434]; 12
c1ccc(Oc2ccc(Nc3ccnc4cc(-c5ccc(CN6CCCCC6)o5)ccc34)cc2)nc1 [GW567143]; 0
O=C1NC(=O)C(c2ccccc2Cl)=C1Nc1cccc(Cl)c1 [SB-342409]; 7
NCCC(NC(=O)c1cc(Br)c(-c2ccnc3[nH]ccc23)s1)c1ccccc1.O=C(O)C(F)(F)F.O=C(O)C(F)(F)F (stereo not shown) [GSK1307810]; 54
CC(=O)Nc1cn2nc(Oc3cccc(NC(=O)c4cccc(C(F)(F)F)c4)c3)ccc2n1; 54
CNc1nccc(-c2ccc3c(N)n[nH]c3c2)n1 [GSK2206003]; 48

// recorded %Inh for Cl.N#CCc1ccc(Nc2nccc(Nc3ccc(Oc4ccccc4)cc3)n2)cc1 [GW639905] : 0

%Inh in this record for CCn1c(-c2nonc2N)nc2c(-c3ccccc3)ncc(OCCCN)c21.O=C(O)C(F)(F)F.O=C(O)C(F)(F)F [GSK260205] : 5

Short answer for `CS(=O)(=O)c1cccc(CNc2nc(Nc3ccc4c(c3)CCC(=O)N4)ncc2C(F)(F)F)c1` : %Inh was 0

Measured %Inh, Cc1nn2c(=O)cc(N3CCO[C@H](C)C3)nc2n1Cc1cccc(Cl)c1Cl [GSK2373693] : 4
